test system: LNCaP cells; assay: Inhibition of LNCaP cell proliferation (WST-8); type: cell-based; settings: Homo sapiens, LNCaP FGC cells, 96 hours
Reported IC50 is given for each of the following compounds.
Assay Metric: IC50 (µM)

INSERT INTO measurements (compound, assay_metric, assay_result) VALUES
  ('N#Cc1cc2c(cc1Cl)OC1(CCN(c3ccc(C(=O)N4CCC(CN5CCC6(CCc7cc(C(=O)N[C@H]8CCC(=O)NC8=O)c(F)cc7O6)CC5)CC4)cc3)CC1)CO2', 'IC50', 0.89),
  ('Cn1c(=O)n(C2CCC(=O)NC2=O)c2cc3c(cc21)C1(CCN(CC2CCN(c4ccc(C(=O)N[C@H]5CC[C@H](Oc6ccc(C#N)c(Cl)c6)CC5)nn4)CC2)CC1)CO3 (stereo partly shown)', 'IC50', 137),
  ('COc1cc(O[C@H]2CC[C@H](NC(=O)c3ccc(N4CCC(CN5CCC6(CC5)COc5c6ccc6c5n(C)c(=O)n6C5CCC(=O)NC5=O)CC4)nn3)CC2)ccc1C#N (stereo partly shown)', 'IC50', 47.6),
  ('C[C@H]1CC2(CCN(c3ccc(C(=O)N4CCC(CN5CCC6(CC5)COc5ccc(NC7CCC(=O)NC7=O)cc56)CC4)cc3)CC2)CN1c1ccc(C#N)c(Cl)c1 (stereo partly shown)', 'IC50', 0.43),
  ('COc1cc(O[C@H]2C(C)(C)[C@H](NC(=O)c3ccc(N4CCC(CN5CCN6c7cc(F)c(C(=O)N[C@H]8CCC(=O)NC8=O)cc7OC[C@H]6C5)CC4)cc3)C2(C)C)ccc1C#N', 'IC50', 0.24),
  ('COc1cc(O[C@H]2C(C)(C)[C@H](NC(=O)c3ccc(N4CCC(CN5CCC6(CC5)COc5c6ccc(C(=O)N[C@H]6CCC(=O)NC6=O)c5F)(OC)CC4)cc3)C2(C)C)ccc1C#N', 'IC50', 0.39),
  ('COc1cc(O[C@H]2C(C)(C)[C@H](NC(=O)c3ccc(N4CCC(C)(CN5CCC6(CCc7cc(C(=O)N[C@H]8CCC(=O)NC8=O)c(F)cc7O6)CC5)CC4)cc3)C2(C)C)ccc1C#N', 'IC50', 0.58),
  ('COc1cc(O[C@H]2C(C)(C)[C@H](NC(=O)c3ccc(N4CCC(F)(CN5CCC6(CCc7cc(F)c(C(=O)N[C@H]8CCC(=O)NC8=O)cc7O6)CC5)CC4)cc3)C2(C)C)ccc1C#N', 'IC50', 18.6),
  ('COc1cc(O[C@H]2CC[C@H](NC(=O)c3ccc(N4CCC(CN5CCC6(CC5)COc5cc7c(cc56)n(C)c(=O)n7C5CCC(=O)NC5=O)CC4)nn3)CC2)ccc1C#N (relative stereo)', 'IC50', 91.2),
  ('COc1cc(O[C@H]2C(C)(C)[C@H](NC(=O)c3ccc(N4CCC(CN5CC6(CCC7(CC6)COc6c7ccc7c6CN(C6CCC(=O)NC6=O)C7=O)C5)CC4)cc3)C2(C)C)ccc1C#N (relative stereo)', 'IC50', 3.43);

----------
biological target: UniProt P03372; test: ERα degradation in T-47D cells (Western blot); type: cell-based; settings: 1nM, 4 hours
Sequence (P03372 whole entry): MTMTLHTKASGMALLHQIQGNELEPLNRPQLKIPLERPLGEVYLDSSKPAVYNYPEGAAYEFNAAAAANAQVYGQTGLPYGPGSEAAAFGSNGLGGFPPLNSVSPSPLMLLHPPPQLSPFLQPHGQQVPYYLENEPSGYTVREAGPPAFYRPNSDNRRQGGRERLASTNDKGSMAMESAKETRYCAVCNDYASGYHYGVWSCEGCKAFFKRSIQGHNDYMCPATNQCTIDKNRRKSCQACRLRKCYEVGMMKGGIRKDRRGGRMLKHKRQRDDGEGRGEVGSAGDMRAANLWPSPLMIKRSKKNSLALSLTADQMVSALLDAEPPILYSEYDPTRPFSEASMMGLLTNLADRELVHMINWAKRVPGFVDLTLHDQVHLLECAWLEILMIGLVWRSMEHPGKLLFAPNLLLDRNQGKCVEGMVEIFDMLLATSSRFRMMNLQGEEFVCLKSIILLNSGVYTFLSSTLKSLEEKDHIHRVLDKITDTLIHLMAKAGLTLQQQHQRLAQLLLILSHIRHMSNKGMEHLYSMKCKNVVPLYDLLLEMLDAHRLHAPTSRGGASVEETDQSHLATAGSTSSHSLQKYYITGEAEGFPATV
Mark N for Degradation rate of ERα in T-47D cells (%) values under 50%, and Y for everything at or above.

INSERT INTO measurements (molecule, assigned_class) VALUES
  ('O=C1CC[C@H](NC(=O)c2ccc3c(c2F)OCC32CCN(C3CC4(CCN(c5ccc([C@@H]6c7ccc(O)cc7CC[C@@H]6c6ccccc6)cc5)CC4)C3)CC2)C(=O)N1', 'N'),
  ('Cn1c(=O)n(C2CCC(=O)NC2=O)c2ccc3c(c21)OCC31CCN(C2CCC3(CC2)CCN(c2ccc([C@@H]4c5ccc(O)cc5CC[C@@H]4c4ccccc4)cc2)CC3)CC1 (some centres unmarked)', 'Y'),
  ('O=C1CC[C@H](NC(=O)c2ccc3c(c2)OCC[C@H]2CN(CC4CCC(OC5CCN(c6ccc([C@@H]7c8ccc(O)cc8CC[C@@H]7c7ccccc7)cc6)CC5)CC4)CCN32)C(=O)N1 (some centres unmarked) [ER-P-44]', 'N'),
  ('O=C1CCC(N2Cc3c(ccc4c3OCC43CCC4(CC3)CN(C3CCC5(CC3)CCN(c3ccc([C@@H]6c7ccc(O)cc7CC[C@@H]6c6ccccc6)cc3)CC5)C4)C2=O)C(=O)N1 (some centres unmarked)', 'N'),
  ('Cn1c(=O)n(C2CCC(=O)NC2=O)c2cc3c(cc21)C1(CCN(C(=O)C2CN(CC4CCN(c5ccc([C@@H]6c7ccc(O)cc7CC[C@@H]6c6ccccc6)cc5)CC4)C2)CC1)CO3 (some centres unmarked)', 'Y');

----------
Target: AR protein (Homo sapiens, UniProt P10275, T878A)
Construct: host or cells: LNCaP FGC
Sequence (P10275 1-920 T878A): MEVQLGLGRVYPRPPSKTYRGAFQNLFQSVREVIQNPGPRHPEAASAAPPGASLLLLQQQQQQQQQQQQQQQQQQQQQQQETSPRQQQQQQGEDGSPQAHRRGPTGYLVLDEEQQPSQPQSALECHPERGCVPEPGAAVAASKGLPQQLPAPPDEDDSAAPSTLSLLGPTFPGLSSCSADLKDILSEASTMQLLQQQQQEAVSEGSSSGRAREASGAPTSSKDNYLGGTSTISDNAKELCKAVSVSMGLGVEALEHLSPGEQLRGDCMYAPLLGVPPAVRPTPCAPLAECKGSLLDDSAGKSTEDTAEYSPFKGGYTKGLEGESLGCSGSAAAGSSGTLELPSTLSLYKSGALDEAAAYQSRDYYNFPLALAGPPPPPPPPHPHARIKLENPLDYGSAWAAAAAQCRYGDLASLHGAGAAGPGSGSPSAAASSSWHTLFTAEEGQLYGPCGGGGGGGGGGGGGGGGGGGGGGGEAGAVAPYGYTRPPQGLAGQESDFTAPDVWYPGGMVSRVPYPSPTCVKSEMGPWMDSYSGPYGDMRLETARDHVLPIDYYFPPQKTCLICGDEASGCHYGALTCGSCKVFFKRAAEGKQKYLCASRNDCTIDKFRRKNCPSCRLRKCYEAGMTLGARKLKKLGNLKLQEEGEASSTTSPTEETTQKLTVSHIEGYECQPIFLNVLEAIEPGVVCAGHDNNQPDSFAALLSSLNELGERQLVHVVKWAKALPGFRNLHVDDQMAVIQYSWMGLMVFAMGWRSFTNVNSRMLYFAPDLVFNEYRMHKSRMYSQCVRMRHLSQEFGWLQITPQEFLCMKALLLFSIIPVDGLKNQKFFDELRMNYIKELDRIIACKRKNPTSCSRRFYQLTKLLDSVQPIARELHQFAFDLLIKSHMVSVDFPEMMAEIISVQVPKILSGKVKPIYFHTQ
Test: AR protein degradation in LNCaP cells (Western blot)
Assay type: cell-based
Settings: 10 nM, 8 hours
Protocol: At the same time, the corresponding solvent control was set and cultured for 8 hours. After 8 hours of culture, the culture medium was removed, the cells were washed with PBS, and RIPA lysis buffer containing 1% Protease Inhibitor Cocktail was added. After lysis and centrifugation, the total protein extract was obtained, and the protein concentration in the extract was detected by BCA method. […] GAPDH protein bands were also detected for each sample as the reference. […]
Assay Metric: Degradation of AR protein in LNCaP cells, 10 nM (%)

INSERT INTO assay_data (molecule, display_unit, assay_result) VALUES
  ('C[C@H]1CC2(CCN(c3ccc(N4CCC(CN5CC6(CCC7(CC6)COc6c7ccc7c6CN(C6CCC(=O)NC6=O)C7=O)C5)CC4)cc3)CC2)CN1c1ccc(C#N)c(Cl)c1 (stereo partly shown)', '%', 58),
  ('COc1cc(O[C@H]2C(C)(C)[C@H](NC(=O)c3ccc(N4CCC(C)(CN5CC6(CCC7(CC6)COc6c7ccc7c6CN(C6CCC(=O)NC6=O)C7=O)C5)CC4)cc3)C2(C)C)ccc1C#N (relative stereo)', '%', 74),
  ('CC1(C)[C@H](NC(=O)c2ccc(N3CCC(CN4CCC5(CCc6cc(C(=O)N[C@H]7CCC(=O)NC7=O)c(F)cc6O5)CC4)CC3)nc2)C(C)(C)[C@H]1Oc1ccc(C#N)c(C(F)(F)F)c1', '%', 52),
  ('COc1cc(O[C@H]2C(C)(C)[C@H](NC(=O)c3ccc(N4CCC(CN5CCC6(CCc7cc(C(=O)N[C@H]8CCC(=O)NC8=O)c(F)cc7O6)CC5)(OC)CC4)cc3)C2(C)C)ccc1C#N', '%', 52),
  ('COc1cc(O[C@H]2C(C)(C)[C@H](NC(=O)c3ccc(N4CCC(CN5CCC6(CCc7cc(C(=O)N[C@H]8CCC(=O)NC8=O)c(F)cc7O6)CC5)CC4)cc3)C2(C)C)ccc1C#N', '%', 41),
  ('CC1(C)[C@H](NC(=O)c2ccc(N3CCC(CN4CCC5(CCc6cc(C(=O)N[C@H]7CCC(=O)NC7=O)c(F)cc6O5)CC4)CC3)nc2)C(C)(C)[C@H]1Oc1ccc(C#N)c(Cl)c1', '%', 73),
  ('COc1cc(O[C@H]2CC[C@H](NC(=O)c3ccc(N4CCC(CN5CCC6(CC5)COc5cc7c(cc56)n(C)c(=O)n7C5CCC(=O)NC5=O)CC4)nn3)CC2)ccc1C#N (relative stereo)', '%', 1);

The reported numbers originate from patent EP4722219A1.
